B1: HDV Ribozyme (parent)
chain: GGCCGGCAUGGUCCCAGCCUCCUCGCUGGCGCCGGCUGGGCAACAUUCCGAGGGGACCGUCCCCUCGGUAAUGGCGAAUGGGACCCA

- Variants of: B1
- protocolNotes: self-cleavage, relative activity (ratio to wild type); higher = more cleavage; co-transcriptional
Hi there, I'd appreciate the recorded self-cleavage for every entry that follows.

What self-cleavage value was documented for this variant, C26G G40C ?
0.19

What self-cleavage value was documented for this variant, A42U C49U ?
0.502

What self-cleavage value was documented for this variant, G31C A71C ?
0.0475

What self-cleavage value was documented for this variant, G11C U23C ?
0.277

What self-cleavage value was documented for this variant, C7U U12A ?
0.35

What self-cleavage value was documented for this variant, C13A C22U ?
0.0583

What self-cleavage value was documented for this variant, G6U A83U ?
0.256

What self-cleavage value was documented for this variant, C15A G35U ?
0.188

What self-cleavage value was documented for this variant, G10A U65A ?
0.831

What self-cleavage value was documented for this variant, G5C G74A ?
0.0898

What self-cleavage value was documented for this variant, C18U C62U ?
0.831

Ref: the RNAGym collection of RNA variant scans (doi:10.7554/elife.80360)
